system-tested: human DNA-PK (Homo sapiens, UniProt P78527)
measurement-protocol: Inhibition of DNA-PKcs kinase activity, HotSpot assay (Reaction Biology), [γ-33P]-ATP phosphorylation of peptide substrate
Assay type: biochemical
experimental-parameters: 10 μM ATP, 10 μg/ml DNA; mean of two replicates; Table 12; read-out: Inhibition of kinase activity (as IC50) DNA-PK (converted)
measurement-label: IC50 (nM)

Input COc1ccc(-n2c(=O)n(C)c3cnc(Nc4ccc(OCc5cnc([N+](=O)[O-])n5C)cc4C)cc32)cc1 . Output IC50: 116

[1] COc1ccc(-n2c(=O)n(C)c3cnc(Nc4ccc(Cl)cc4C)cc32)cc1
[2] Cc1cc(Cl)ncc1Nc1cc2c(cn1)n(C)c(=O)n2C1CCOCC1
[3] COCCn1c(=O)n(C)c2cnc(Nc3ccc(Cl)cc3C)cc21
In: Order these by IC50, descending, and give the full ranking. To answer, write out the labels according to the requested order.
Out: 2, 3, 1
